Where do these numbers come from? They come from patent US20090298765A1.

- target-system: human OT7T175 (metastin receptor) (human, UniProt Q969F8 1-398)
- Sequence (Q969F8 whole entry L364H): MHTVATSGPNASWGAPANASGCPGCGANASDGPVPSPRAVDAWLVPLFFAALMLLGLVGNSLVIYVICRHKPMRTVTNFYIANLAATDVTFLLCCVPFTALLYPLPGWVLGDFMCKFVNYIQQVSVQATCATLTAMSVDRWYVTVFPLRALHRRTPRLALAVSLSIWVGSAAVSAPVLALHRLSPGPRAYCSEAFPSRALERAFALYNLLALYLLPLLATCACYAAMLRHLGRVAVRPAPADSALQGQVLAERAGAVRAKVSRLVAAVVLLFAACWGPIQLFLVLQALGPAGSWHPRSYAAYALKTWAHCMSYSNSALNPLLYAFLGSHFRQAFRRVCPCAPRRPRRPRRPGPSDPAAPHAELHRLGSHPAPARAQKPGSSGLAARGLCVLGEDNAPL
- test-description: cell-based or functional assay
Non-standard residues stand in square brackets, D forms with d. No end group written: not given here. Phe(4-F) = N[C@@H](Cc1ccc(F)cc1)C(=O)O; Arg(Me) = CNC(=N)NCCC[C@H](N)C(=O)O; 4Pal = N[C@@H](Cc1ccncc1)C(=O)O; azaGly = NNC(=O)O
outcome-measure: Ca ion level-increasing activity (FLIPR)

Some binders with recorded Ca ion level-increasing activity (FLIPR):
binder	outcome-measure	endpoint-result
[dY]NWNSFGL[Arg(Me)]F-NH2 (also: bond 6-7 CONH replaced by NHCO (reversed)) [[6Ψ7,NHCO,D-Tyr1,Arg(Me)9]MS10]	Ca ion level-increasing activity (FLIPR)	3 x Metastin (1-54)
[dY][dN]TNSF[azaGly]L[Arg(Me)][Phe(4-F)]-NH2 (N-terminus assumed; SMILES CNC(=N)NCCC[C@H](NC(=O)[C@H](CC(C)C)NC(=O)NNC(=O)[C@H](Cc1ccccc1)NC(=O)[C@H](CO)NC(=O)[C@H](CC(N)=O)NC(=O)[C@@H](NC(=O)[C@@H](CC(N)=O)NC(=O)[C@H](N)Cc1ccc(O)cc1)[C@@H](C)O)C(=O)N[C@@H](Cc1ccc(F)cc1)C(N)=O, also called Compound No. 316) [[D-Tyr1,D-Asn2,Thr3,AzaGly7,Arg(Me)9,Phe(4F)10]MS10]	Ca ion level-increasing activity (FLIPR)	1 x Metastin (1-54)

Lab note: next binder to report on.
Query: Kindly indicate its recorded Ca ion level-increasing activity (FLIPR). Item: [dY][dN][4Pal]NSF[azaGly]L[Arg(Me)][Phe(4-F)]-NH2 (N-terminus assumed; SMILES CNC(=N)NCCC[C@H](NC(=O)[C@H](CC(C)C)NC(=O)NNC(=O)[C@H](Cc1ccccc1)NC(=O)[C@H](CO)NC(=O)[C@H](CC(N)=O)NC(=O)[C@H](Cc1ccncc1)NC(=O)[C@@H](CC(N)=O)NC(=O)[C@H](N)Cc1ccc(O)cc1)C(=O)N[C@@H](Cc1ccc(F)cc1)C(N)=O, also called Compound No. 317) [[D-Tyr1,D-Asn2,Pya(4)3,AzaGly7,Arg(Me)9,Phe(4F)10]MS10]
Result: 1 x Metastin (1-54)
